# SYSTEM NAME: AMP-activated protein kinase, AMPK (Homo sapiens) (UniProt P54646+O43741+P54619+Q9UGJ0+Q9Y478+Q13131+Q9UGI9)
# METHOD NOTES: AMP-dependent Kinase enzyme assay. An in vitro enzyme assay that detects ADP turnover that is directly proportional to AMPK activity. This uses naive AMPK that is activated during the assay with MK-8722
# Assay type: functional
# Design: scale not given: direction of the effect not stated beside the values
# CONDITION PARAMETERS: 30 µM
Quick reference: Percent Effect of the listed items.
Respond with the bare value in %.

>  <COMPOUND>
COc1ccc(CN2C[C@@H]3COC[C@]3(COc3cccnc3)C2)cc1

>  <UNIT STRING>
%

>  <Percent Effect>
3.5

$$$$

// Percent Effect lookup, key: O=C(COc1cccc2c1CCC2=O)NCc1ccccc1F
2.6

Fill in: Percent Effect of O=C(Nc1cnn(CCN2CCOCC2)c1)c1cc(F)ccc1F is ___
-3.4

// returns reported Percent Effect for input Clc1ccccc1C1(c2ccnc(CC3CC3)n2)CCNCC1
-1.73

For Cc1nc(CN2C(=O)COC3(CCN(Cc4ccco4)CC3)C2C)cs1 (configuration not stated) , what is its reported Percent Effect?
3.27

Look at this compound and give its reported Percent Effect. CC(C)c1ncc2c(n1)CN(Cc1nc(Cc3ccccc3)no1)CC2
-1.07

Entry under review: CN(C(=O)Cn1nc(-c2ccc(F)cc2)oc1=O)C1CCS(=O)(=O)C1 (configuration not stated) . Reported Percent Effect?
-6.94

Fill in the blank: the reported Percent Effect of O=C(c1cscn1)N1CCC[C@]2(C[C@H](OCC3CC3)CO2)C1 is ____.
6.38

Value lookup for Percent Effect; key = O=C(CCc1nccs1)N1CCN(c2cccnn2)CC1
4.08

Please give the measured Percent Effect for this compound: O=C(c1ccsc1)N1C[C@@H]2C[C@@H](c3nnc(C4CC4)o3)O[C@@H]2C1
6.12

Given the compound CCc1nccn1C1CCCN(C(=O)CCc2nccs2)C1 (configuration not stated) , what is its reported Percent Effect?
-10.8

Percent Effect lookup needed for Cc1noc(C(C)C)c1C(=O)NS(=O)(=O)c1ccc(Cl)cc1 , thanks.
7.93

Endpoint output: Percent Effect of CC(C)NC(=O)N1CC[C@@H]2CN(Cc3cccc(Cl)c3)S(=O)(=O)[C@@H]2CC1 . Value?
9.12

Values were extracted from ChEMBL document CHEMBL3988442.
